Test: Metabolic stability, mouse liver S9
Assay type: in vitro ADME
Conditions: pooled liver S9 fraction, Table S4, read-out: t1/2 mouse liver S9
measuredMetric: half-life at 1 μM (min)
Write down the numeric answer in min and omit the unit.

So what does the record say about half-life at 1 μM for FC(F)(F)c1cc(NCc2cn(-c3ccc(Oc4ccccc4)cc3)nn2)ccn1 [Compound 4] ?
19.9

---

Experiment: Permeability across Calu-3 monolayer
Format: in vitro ADME
Settings: human; Calu‐3 lung epithelial cells
measuredMetric: Papp at 4 h (×10⁻⁶ cm/s)
Write down the numeric answer in ×10⁻⁶ cm/s and omit the unit.

So what does the record say about Papp at 4 h for `COc1ccc(-n2cc(CNc3ccnc(C(F)(F)F)c3)nn2)cc1Cl` ?
11.4

So what does the record say about Papp at 4 h for `FC(F)(F)c1cc(NCc2cn(-c3ccc(Oc4ccccc4)cc3)nn2)ccn1` ?
5.3
